Value source: the supplement of paper PMC10981050

Measured cell viability, listed per entry.
- System: K562
- protocol: cell viability relative to vehicle control; higher = less cytotoxic;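 note: after 48 h exposure read by CellTiter-Glo luminescence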
- condition_context: 10 µM; SRSF2 genotype: SRSF2 wt/wt
Counter-ions that a name gives are not always drawn.
measurement_label: cell viability

In [3]: df
Out[3]:
                                   compound   tgt  assay_result
0  CCCC(CCC)C(=O)O[C@H]1C[C@H]2CC[C@@H](C1)[N+]2(C)C [anisotropine methylbromide]  K562          104%
1  CCn1cc(C(=O)O)c(=O)c2cc(F)c(N3CCN(C)CC3)cc21 [Pefloxacin Mesylate Dihydrate]  K562         80.7%
2  COc1cc2c(c(OC)c1OC)-c1c(cc3c(c1OC)OCO3)CC(C)C(C)C2 (centres undefined) [Schisandrin B]  K562         74.8%
3  CC(C)(C)NC(=O)[C@H]1CC[C@H]2[C@@H]3CC[C@H]4NC(=O)C=C[C@]4(C)[C@H]3CC[C@]12C [Finasteride]  K562         97.5%

###

- Test system: MARIMO
- protocol: cell viability relative to vehicle control; higher = less cytotoxic
- condition_context: 10 µM; SRSF2 genotype: SRSF2 P95H/wt
Structures can show the parent of a compound that is named as a salt.

compound	u	cell viability
Cc1csc(-c2nnc(Nc3ccc(Oc4ncccc4-c4ccnc(N)n4)cc3)c3ccccc23)c1	%	91.6
OCc1ccc(O[C@@H]2O[C@H](CO)[C@@H](O)[C@H](O)[C@H]2O)cc1	%	107
COC(=O)Nc1nc2cc(C(=O)c3ccc(F)cc3)ccc2[nH]1	%	9.3
COc1ccc2[nH]c([S@@+]([O-])Cc3ncc(C)c(OC)c3C)nc2c1 [NEXIUM (esomeprazole magnesium)]	%	97
CCN(CC)C(=O)C1(c2ccccc2)CC1CN (stereo not drawn) [Milnacipran HCl]	%	99.6
CC(C)=CC(=O)O[C@H]1Cc2cc3ccc(=O)oc3cc2OC1(C)C	%	81.6
O=C(O)/C=C/c1ccc(O)cc1	%	108
O=C1C(=C(O)C=Cc2ccc(O)cc2)C(O)=C([C@@H]2O[C@H](CO)[C@@H](O)[C@H](O)[C@H]2O)C(=O)C1(O)[C@@H]1O[C@H](CO)[C@@H](O)[C@H](O)[C@H]1O (stereo partly drawn) [Hydroxy safflor yellow A]	%	90.1

###

- System: MOLM14
- protocol: cell viability relative to vehicle control; higher = less cytotoxic
- condition_context: 10 µM; SRSF2 genotype: SRSF2 P95H/wt
Measured cell viability, listed per entry.
measurement_label: cell viability (%)

compound	measurement_label	u	assay_result
CC1(C)CC[C@]2(C(=O)O)CC[C@]3(CO)C(=CC[C@@H]4[C@@]5(C)C[C@H](O)[C@H](O[C@@H]6O[C@H](CO)[C@@H](O)[C@H](O)[C@H]6O)[C@@](C)(C(=O)O)[C@@H]5CC[C@]43C)[C@@H]2C1	cell viability	%	99.4
C[C@H]1[C@@H](O)O[C@@H]2O[C@@]3(C)CC[C@H]4[C@H](C)CC[C@@H]1[C@@]24OO3 [Dihydroartemisinin (DHA)]	cell viability	%	22.1
N#Cc1ccc([C@H]2CCc3cncn32)c(F)c1	cell viability	%	99.5
CNC(=O)CN1CCC(Oc2cc3c(Nc4cccc(Cl)c4F)ncnc3cc2OC)CC1	cell viability	%	79.5
C/C=C(\C)C(=O)OC1c2c(ccc3ccc(=O)oc23)OC(C)(C)C1OC(=O)/C(C)=C/C (configuration not stated)	cell viability	%	109
NC(=O)c1ccc(-c2nc(-c3ccccn3)c(-c3ccc4c(c3)OCO4)[nH]2)cc1	cell viability	%	102
COc1cc(-c2cc(-c3cccc(O)c3)cnc2N)cc(OC)c1OC	cell viability	%	81.9
COc1ccc(-c2oc3c(CC=C(C)C)c(O)cc(O)c3c(=O)c2O[C@@H]2O[C@@H](C)[C@H](O)[C@@H](O)[C@H]2O)cc1 [Baohuoside I]	cell viability	%	87.8
CN1CCN(Cc2ccc(-c3cnc4[nH]cc(-c5ccc6[nH]ccc6c5)c4c3)cc2)CC1	cell viability	%	0.32
O=C(Nc1ccc(-c2ccnc(Nc3ccc(N4CCOCC4)cc3)n2)cc1)C1CCCN1 (configuration not stated)	cell viability	%	35.5
Cc1ccc(NC(=O)c2ccc(CN3CCN(C)CC3)cc2)cc1Nc1nc(-c2cccnc2)cs1	cell viability	%	70.3
O=C1CN(/N=C/c2ccc(-c3ccc([N+](=O)[O-])cc3)o2)C(=O)N1 [Dantrolene sodium hemiheptahydrate]	cell viability	%	100
CCN(CC)c1ccc(C=NNC(=O)c2ccc(O)cc2)cc1	cell viability	%	56.2
COc1ccc(-c2cc3c(C)nc(N)nc3n([C@H]3CC[C@H](OCCO)CC3)c2=O)cn1	cell viability	%	22.9
N#CN=C(NCCCCCCOc1ccc(Cl)cc1)Nc1ccncc1	cell viability	%	6.24
CN1CCN(c2ccc(Nc3ncc4cc(C#N)c(=O)n(C5CCCC5)c4n3)cc2)CC1	cell viability	%	17.9
CC(C)CC(CC(=O)NO)C(=O)N[C@@H](Cc1ccc2ccccc2c1)C(=O)N[C@@H](C)C(=O)NCCN (some centres not stated)	cell viability	%	99.1

###

- Tested on: OCI-AML2
- protocol: cell viability relative to vehicle control; higher = less cytotoxic
- condition_context: 10 µM; SRSF2 genotype: P95H/wt
Measured cell viability, listed per entry.
measurement_label: cell viability (%)

In [3]: df
Out[3]:
                                   compound  measurement_label  u  assay_result
0                O=C(O)C(=O)O [Oxalic acid]     cell viability  %          99.2
1  CN(CC(=O)N(Cc1ccc(C2CCCCC2)cc1)c1ccc(C(=O)O)cc1)S(=O)(=O)c1c(F)c(F)c(F)c(F)c1F     cell viability  %          0.12
2  O=C(O)C[C@H](O)C[C@H](O)/C=C/c1c(C2CC2)nc2ccccc2c1-c1ccc(F)cc1 [Pitavastatin calcium (Livalo)]     cell viability  %          1.41
3  CC1CNC(=O)NC1=O (stereo not given) [Dihydrothymine]     cell viability  %            94
4    Cc1ccc(=O)n(-c2ccccc2)c1 [Pirfenidone]     cell viability  %           109

###

- Tested on: MARIMO
- protocol: cell viability relative to vehicle control; higher = less cytotoxic
- condition_context: 10 µM; SRSF2 genotype: SRSF2 wt/wt
measurement_label: cell viability (%)

>>> df
                                   molecule  u  assay_result
0  CC(C)C[C@@H]1NC(=O)[C@@H](C(C)C)NC(=O)[C@@H]2CCCN2C(=O)[C@@H](CC(=O)O)NC(=O)[C@@H](Cc2c[nH]c3ccccc23)NC1=O  %           108
1  C=CC(=O)Nc1ccc2ncnc(Nc3ccc(OCc4cccc(F)c4)c(Cl)c3)c2c1  %          44.3
2  CNc1nc(-c2ccc3c(N)n[nH]c3c2)cc(N2C[C@@H](C(=O)NC3CCCCC3)CC[C@H]2C)n1  %          72.8
3  CC(=O)OCC(=O)[C@@]12N=C(C)O[C@@H]1C[C@H]1[C@@H]3CCC4=CC(=O)C=C[C@]4(C)[C@H]3[C@@H](O)C[C@@]12C  %           109
4  CCc1ccc(Cc2ccc3c(c2)[C@]2(OC3)O[C@H](CO)[C@@H](O)[C@H](O)[C@H]2O)cc1  %          88.5
5        Oc1ccc(Nc2nc(-c3ccc(Cl)cc3)cs2)cc1  %          36.5
6  Cc1onc(-c2ccccc2Cl)c1C(=O)N[C@@H]1C(=O)N2[C@@H]1SC(C)(C)[C@@H]2C(=O)O [Cloxacillin sodium]  %           106
7                   CCCCOc1ccc(CC(=O)NO)cc1  %          88.7

###

Measured cell viability, listed per entry.
- Test system: MARIMO
- protocol: cell viability relative to vehicle control; higher = less cytotoxic
- condition_context: 10 µM; SRSF2 genotype: SRSF2 wt/wt
Where a name gives a salt, the structure may show the parent alone.

molecule	cell viability (%)
O=C(/C=C/c1ccc(O)cc1)C1=C(O)[C@](O)([C@@H]2O[C@H](CO)[C@@H](O)[C@H](O)[C@H]2O)C(O)=C(/C=C2/C(=O)C(C(=O)/C=C/c3ccc(O)cc3)=C(O)[C@@](O)([C@@H]3O[C@H](CO)[C@@H](O)[C@H](O)[C@H]3O)C2=O)C1=O [Safflower Yellow]	98.8
COc1cccc(-c2cc(F)ccc2C2Cc3nc(N)nc(C)c3C(=O)N2)n1 (stereo unspecified)	24.7
CCOC(=O)[C@H](CCc1ccccc1)N[C@@H](C)C(=O)N1Cc2ccccc2C[C@H]1C(=O)O [Quinapril hydrochloride (Accupril)]	106
COc1cc2ncnc(Nc3ccc(F)c(Cl)c3)c2cc1OCCCN1CCOCC1 [Gefitinib (ZD1839)]	63.1
COC(=O)N[C@H](C(=O)N1CCC[C@H]1c1ncc(-c2ccc(-c3ccc(-c4cnc([C@@H]5CCCN5C(=O)[C@@H](NC(=O)OC)C(C)C)[nH]4)cc3)cc2)[nH]1)C(C)C	83.9
CC1=CC(=O)c2ccccc2C1=O [Menadione]	93.1
CCCCCCCCCCCCc1ccc(S(=O)(=O)Nc2nncs2)cc1	109
CCOc1cc(C(=O)N2CCC(N3CCN(C)CC3)CC2)ccc1Nc1ncc2c(n1)N(C1CCCC1)c1ccccc1C(=O)N2C	35.2
C[C@H]1O[C@@H](n2cc(F)c(=O)[nH]c2=O)[C@H](O)[C@@H]1O [Doxifluridine]	104
COc1cc2c(cc1OC)-c1cc3ccc(OC)c(OC)c3c[n+]1CC2 [Palmatine]	92
Cc1[nH]c2ccccc2c1C1=C(NCCc2ccc(F)cc2)C(=O)N(C)C1=O	100
CCCCCCCCCC[C@H](C(=O)O)[C@]1(C(=O)O)CCC(=O)O1 [Spiculisporic Acid]	107
Cc1cc(NC(=O)Nc2ccc(N(C)C)cc2)c2cc(F)cc(F)c2n1	109
CC12CCC(O)CC1=CCC1C2CCC2(C)C(C(O)CC(O)(C(F)(F)F)C(F)(F)F)CCC12 (stereo unspecified)	90.3
CC(C)Oc1ccc(-c2nc(-c3cccc4c3CC[C@@H]4NCCO)no2)cc1C#N [Ozanimod (RPC1063)]	32.2
COc1c(O)cc2c(c1O)C(=O)c1c(cc(C)c(O)c1OC)C2=O [Aurantio-obtusin]	84.3
